Tested on: liver CYP1A
Assay Comment: Liver microsomal CYP1A enzymatic activity, inhibition or enhancement
Measurement Parameters: compound 1 μM; liver microsomes
# liver CYP1A activity (% of control group) per entry
Give the value, in units of %, as a plain number.

Ask: Request body: readout liver CYP1A activity (% of control group), system liver CYP1A, query O=c1cc(-c2ccc(O)c(O)c2)oc2cc(O[C@@H]3O[C@H](CO)[C@@H](O)[C@H](O)[C@H]3O)cc(O)c12 [Luteolin-7-glucoside] . Return the value.
Result: 109.79

Ask: Fill in the recorded liver CYP1A activity (% of control group) for this molecule, with liver CYP1A as test system: O=c1cc(-c2ccccc2)oc2cc(O)c(O)c(O)c12
Result: 110.67

Ask: Return liver CYP1A activity (% of control group) measured with liver CYP1A given this molecule: O=C1C[C@@H](c2ccc(O)cc2)Oc2cc(O)cc(O)c21
Result: 116.45

Ask: Value wanted: liver CYP1A activity (% of control group) (liver CYP1A) of entry C[C@@H]1O[C@@H](O[C@H]2[C@H](Oc3cc(O)c4c(c3)O[C@H](c3ccc(O)cc3)CC4=O)O[C@H](CO)[C@@H](O)[C@@H]2O)[C@H](O)[C@H](O)[C@H]1O
Result: 138.88

Ask: Reported liver CYP1A activity (% of control group) for liver CYP1A, given Oc1cc(O)c2c(c1)O[C@H](c1ccc(O)c(O)c1)[C@@H](O)C2 [(+)-Catechin] ?
Result: 90.00

Next:
Ask: Find the measured liver CYP1A activity (% of control group): item Oc1cc(O)c2c(c1)O[C@H](c1ccc(O)c(O)c1)[C@H](O)C2 [(−)-Epicatechin] , target or system liver CYP1A.
Result: 133.54
